# Test system: Escherichia coli strain MC4100 IMP-4213, which harbors an LptD mutation
# Details: E. coli MC4100 IMP-4213; 35° C., 22 hours
*1 amine or outer side, *2 acyl side, *3 side chain or, on linkers, in order; H or OH if unused. Where a SMILES comes first, the peptide text is derived from it. [ ]: non-standard residue; d: D form. The star is where a group is joined. ξ: configuration not given here. boroAla((+)-pinanediol) = C[C@H](N*)B1O[C@@H]2C[C@@H]3C[C@@H](C3(C)C)[C@]2(C)O1; ξ3Amino2oxobutanoyl = CC(N[*:1])C(=O)C(=O)[*:2]; X33 = CC(C)(O)C#CC#Cc1ccc(C(=O)*)cc1; X10 = O=C(c1ccc(-c2ccc(Cl)cc2)nc1)*; Thr(3ξ) = CC(O)[C@H](N)C(=O)O; Decanoyl = CCCCCCCCCC(=O)*; X8 = NCCCCCCCCCCCCC(=O)*; Dab = NCC[C@H](N)C(=O)O

Compound: C[C@H](NC(=O)[C@H](CCCCN)NC(=O)[C@H](C)NC(=O)[C@@H](NC(=O)[C@H](CCN)NC(=O)CCCCCCCCCCCCN)[C@@H](C)O)B1O[C@@H]2C[C@@H]3C[C@@H](C3(C)C)[C@]2(C)O1 [Compound 115] (X8-[Dab]TAK-{boroAla((+)-pinanediol)})
Display Unit: µg/mL
Reading Qualifier: >
MIC (μg/mL) E. coli: 64
--
Compound: C[C@H](NC(=O)[C@H](CCCCN)NC(=O)[C@H](C)NC(=O)[C@@H](NC(=O)[C@H](CCN)NC(=O)c1ccc(C#CC#CC(C)(C)O)cc1)[C@@H](C)O)B1O[C@@H]2C[C@@H]3C[C@@H](C3(C)C)[C@]2(C)O1 [Compound 264] (X33-[Dab]TAK-{boroAla((+)-pinanediol)})
Display Unit: µg/mL
Reading Qualifier: =
MIC (μg/mL) E. coli: 4
--
Compound: C[C@H](NC(=O)[C@H](CCCCN)NC(=O)[C@H](C)NC(=O)[C@@H](NC(=O)[C@H](CCN)NC(=O)c1ccc(-c2ccc(Cl)cc2)nc1)[C@@H](C)O)B1O[C@@H]2C[C@@H]3C[C@@H](C3(C)C)[C@]2(C)O1 [Compound 118] (X10-[Dab]TAK-{boroAla((+)-pinanediol)})
Display Unit: µg/mL
Reading Qualifier: =
MIC (μg/mL) E. coli: 8
--
Compound: CCCCCCCCCC(=O)N[C@@H](CCCCN)C(=O)N[C@H](C(=O)N[C@@H](C)C(=O)N[C@@H](CC(N)=O)C(=O)NC(C)C(=O)C(=O)NC)C(C)O (stereo partly shown) [Compound 107] (Decanoyl-K[Thr(3ξ)]AN[ξ3Amino2oxobutanoyl]-NHMe)
Display Unit: µg/mL
Reading Qualifier: >
MIC (μg/mL) E. coli: 64
